- TARGET SYSTEM: progesterone receptor ligand binding domain (LBD) (Homo sapiens, UniProt P06401)
- Sequence (P06401 679-913 limits assumed): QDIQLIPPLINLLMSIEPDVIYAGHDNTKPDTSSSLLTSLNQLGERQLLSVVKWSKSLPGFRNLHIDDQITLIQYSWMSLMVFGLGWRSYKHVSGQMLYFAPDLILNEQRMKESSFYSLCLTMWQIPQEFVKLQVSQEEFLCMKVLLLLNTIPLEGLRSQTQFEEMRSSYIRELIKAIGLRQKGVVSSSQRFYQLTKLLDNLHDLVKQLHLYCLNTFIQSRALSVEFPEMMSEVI
pIC50: −log10 of the molar value.
MEASURE: pIC50

COMPOUND	pIC50
CCNC(=O)C[C@@H]1N=C(c2ccc(N3CCN(CC4CCN(c5ncc(C(=O)N[C@H]6C(C)(C)[C@H](Oc7ccc(C#N)c(Cl)c7)C6(C)C)cn5)CC4)CC3)cc2)c2c(sc(C)c2C)-n2c(C)nnc21	6.30 to 7.30
Cc1sc2c(c1C)C(c1ccc(OC3CC4(CCN(c5ncc(C(=O)N[C@H]6C(C)(C)[C@H](Oc7ccc(C#N)c(Cl)c7)C6(C)C)cn5)CC4)C3)cc1)=NC(Cc1ncco1)c1nnc(C)n1-2 (stereo partly shown)	6.30 to 7.30
CCNC(=O)C[C@@H]1N=C(c2ccc(N(C)C3CC(OC4CCN(c5ncc(C(=O)N[C@H]6C(C)(C)[C@H](Oc7ccc(C#N)c(Cl)c7)C6(C)C)cn5)CC4)C3)cc2)c2c(sc(C)c2C)-n2c(C)nnc21 (stereo partly shown)	> 7.30

Could you now consider this next compound?
CCNC(=O)C[C@@H]1N=C(c2ccc(CCCN(C)c3ncc(C(=O)N[C@H]4C(C)(C)[C@H](Oc5ccc(C#N)c(Cl)c5)C4(C)C)cn3)cc2)c2c(sc(C)c2C)-n2c(C)nnc21 has a reported pIC50 of 6.30 to 7.30

====

- Tested on: VCaP cells
- MEASUREMENT NOTES: Cellular growth inhibition assay for VCaP cells, CellTiter-Glo
- Format: cell-based, human
- TEST SETTINGS: 72 hours treatment, CellTiter-Glo 2.0
MEASURE: GI50

Worked cases, GI50 given:
COMPOUND	GI50
Cc1sc2c(c1C)C(c1ccc(N3CC(C4CCN(c5ncc(C(=O)N[C@H]6C(C)(C)[C@H](Oc7ccc(C#N)c(Cl)c7)C6(C)C)cn5)C4)C3)cc1)=NC1(CC1)c1nnc(C)n1-2 (stereo partly drawn)	< 0.5 µM
COCC[C@@H]1N=C(c2ccc(OC3CC4(CCCN(c5ncc(C(=O)N[C@H]6C(C)(C)[C@@H](Oc7ccc(C#N)c(Cl)c7)C6(C)C)cn5)C4)C3)cc2)c2c(sc(C)c2C)-n2c(C)nnc21	< 0.5 µM
CC[C@@H]1N=C(c2ccc(CC3CCC4(C3)CN(c3ncc(C(=O)N[C@H]5C(C)(C)[C@H](Oc6ccc(C#N)c(Cl)c6)C5(C)C)cn3)CCO4)cc2)c2c(sc(C)c2C)-n2c(C)nnc21 (stereo partly drawn) [Compound I-615]	< 0.5 µM
CC[C@@H]1N=C(c2ccc(CC3CCC4(C3)CN(c3ncc(C(=O)N[C@H]5C(C)(C)[C@H](Oc6ccc(C#N)c(Cl)c6)C5(C)C)cn3)CCO4)cc2)c2c(sc(C)c2C)-n2c(C)nnc21 (stereo partly drawn) [Compound I-613]	< 0.5 µM
Cc1sc2c(c1C)C(c1ccc(C3CC(C4CCN(c5ncc(C(=O)N[C@H]6C(C)(C)[C@H](Oc7ccc(C#N)c(Cl)c7)C6(C)C)cn5)CC4)C3)cc1)=NC(C)c1nnc(C)n1-2 (stereo partly drawn) [Compound I-468]	< 0.5 µM

Please state GI50 for every compound in the list that follows.
1. Cc1sc2c(c1C)C(c1ccc(N3CC(C4CCN(c5ncc(C(=O)N[C@H]6C(C)(C)[C@H](Oc7ccc(C#N)c(Cl)c7)C6(C)C)cn5)C4)C3)cc1)=N[C@@H](C)c1nnc(C)n1-2 (stereo partly drawn)
2. Cc1sc2c(c1C)C(c1ccc(CC3CC4(CCN(c5ncc(C(=O)N[C@H]6C(C)(C)[C@H](Oc7ccc(C#N)c(Cl)c7)C6(C)C)cn5)CC4)C3)cc1)=N[C@@H](C)c1nnc(C)n1-2
3. Cc1sc2c(c1C)C(c1ccc(C3CC(C4CCN(c5ncc(C(=O)N[C@H]6C(C)(C)[C@H](Oc7ccc(C#N)c(Cl)c7)C6(C)C)cn5)CC4)C3)cc1)=NC(C)c1nnc(C)n1-2 (stereo partly drawn) [Compound I-465]

1. < 0.5 µM
2. 1.5 to 3 µM
3. < 0.5 µM

Quick batch: GI50 for everything below.
1. Cc1sc2c(c1C)C(c1ccc(C3CC(C4CCN(c5cnc(C(=O)N[C@H]6C(C)(C)[C@H](Oc7ccc(C#N)c(Cl)c7)C6(C)C)cn5)CC4)C3)cc1)=NC(C)c1nnc(C)n1-2 (stereo partly drawn) [Compound I-472]
2. Cc1sc2c(c1C)C(c1ccc(C3CC(C4CCN(c5cnc(C(=O)N[C@H]6C(C)(C)[C@H](Oc7ccc(C#N)c(Cl)c7)C6(C)C)cn5)CC4)C3)cc1)=NC(C)c1nnc(C)n1-2 (stereo partly drawn) [Compound I-469]
3. Cc1sc2c(c1C)C(c1ccc(N3CC(C4CCCN(c5ncc(C(=O)N[C@H]6C(C)(C)[C@H](Oc7ccc(C#N)c(Cl)c7)C6(C)C)cn5)C4)C3)cc1)=N[C@@H](C)c1nnc(C)n1-2 (stereo partly drawn)
4. Cc1sc2c(c1C)C(c1ccc(CC3CC(OC4CCN(c5ncc(C(=O)N[C@H]6C(C)(C)[C@H](Oc7ccc(C#N)c(Cl)c7)C6(C)C)cn5)CC4)C3)cc1)=N[C@@H](C)c1nnc(C)n1-2 (stereo partly drawn) [Compound I-445]

> 3 µM
< 0.5 µM
> 3 µM
< 0.5 µM
